Assay: Inhibition of body weight gain in Yoshida sarcoma-bearing rats (Pharmacological Test Example 1)
Parameters: species or system rat (male Donryu/CRJ strain)
Details: rat, in vivo, iv, CVI: continuous intravenous drip injection; read-out: BWC50 (dose of 50% inhibition of body weight gain)
experimental-readout: TD50 (mg/kg)

>>> recorded_measurement("O=c1[nH]c(=O)n([C@H]2C[C@H](O)[C@@H](CO)O2)cc1F [FdUrd, 2'-deoxy-5-fluorouridine]")
0.7
